Hello, the source for this data is ChEMBL document CHEMBL4507283, in case you need it.

TESTED_TARGET: Voltage-dependent L-type calcium channel subunit alpha-1C (phenylalkylamine site) (Rattus norvegicus, UniProt P22002)
Sequence (P22002 whole entry): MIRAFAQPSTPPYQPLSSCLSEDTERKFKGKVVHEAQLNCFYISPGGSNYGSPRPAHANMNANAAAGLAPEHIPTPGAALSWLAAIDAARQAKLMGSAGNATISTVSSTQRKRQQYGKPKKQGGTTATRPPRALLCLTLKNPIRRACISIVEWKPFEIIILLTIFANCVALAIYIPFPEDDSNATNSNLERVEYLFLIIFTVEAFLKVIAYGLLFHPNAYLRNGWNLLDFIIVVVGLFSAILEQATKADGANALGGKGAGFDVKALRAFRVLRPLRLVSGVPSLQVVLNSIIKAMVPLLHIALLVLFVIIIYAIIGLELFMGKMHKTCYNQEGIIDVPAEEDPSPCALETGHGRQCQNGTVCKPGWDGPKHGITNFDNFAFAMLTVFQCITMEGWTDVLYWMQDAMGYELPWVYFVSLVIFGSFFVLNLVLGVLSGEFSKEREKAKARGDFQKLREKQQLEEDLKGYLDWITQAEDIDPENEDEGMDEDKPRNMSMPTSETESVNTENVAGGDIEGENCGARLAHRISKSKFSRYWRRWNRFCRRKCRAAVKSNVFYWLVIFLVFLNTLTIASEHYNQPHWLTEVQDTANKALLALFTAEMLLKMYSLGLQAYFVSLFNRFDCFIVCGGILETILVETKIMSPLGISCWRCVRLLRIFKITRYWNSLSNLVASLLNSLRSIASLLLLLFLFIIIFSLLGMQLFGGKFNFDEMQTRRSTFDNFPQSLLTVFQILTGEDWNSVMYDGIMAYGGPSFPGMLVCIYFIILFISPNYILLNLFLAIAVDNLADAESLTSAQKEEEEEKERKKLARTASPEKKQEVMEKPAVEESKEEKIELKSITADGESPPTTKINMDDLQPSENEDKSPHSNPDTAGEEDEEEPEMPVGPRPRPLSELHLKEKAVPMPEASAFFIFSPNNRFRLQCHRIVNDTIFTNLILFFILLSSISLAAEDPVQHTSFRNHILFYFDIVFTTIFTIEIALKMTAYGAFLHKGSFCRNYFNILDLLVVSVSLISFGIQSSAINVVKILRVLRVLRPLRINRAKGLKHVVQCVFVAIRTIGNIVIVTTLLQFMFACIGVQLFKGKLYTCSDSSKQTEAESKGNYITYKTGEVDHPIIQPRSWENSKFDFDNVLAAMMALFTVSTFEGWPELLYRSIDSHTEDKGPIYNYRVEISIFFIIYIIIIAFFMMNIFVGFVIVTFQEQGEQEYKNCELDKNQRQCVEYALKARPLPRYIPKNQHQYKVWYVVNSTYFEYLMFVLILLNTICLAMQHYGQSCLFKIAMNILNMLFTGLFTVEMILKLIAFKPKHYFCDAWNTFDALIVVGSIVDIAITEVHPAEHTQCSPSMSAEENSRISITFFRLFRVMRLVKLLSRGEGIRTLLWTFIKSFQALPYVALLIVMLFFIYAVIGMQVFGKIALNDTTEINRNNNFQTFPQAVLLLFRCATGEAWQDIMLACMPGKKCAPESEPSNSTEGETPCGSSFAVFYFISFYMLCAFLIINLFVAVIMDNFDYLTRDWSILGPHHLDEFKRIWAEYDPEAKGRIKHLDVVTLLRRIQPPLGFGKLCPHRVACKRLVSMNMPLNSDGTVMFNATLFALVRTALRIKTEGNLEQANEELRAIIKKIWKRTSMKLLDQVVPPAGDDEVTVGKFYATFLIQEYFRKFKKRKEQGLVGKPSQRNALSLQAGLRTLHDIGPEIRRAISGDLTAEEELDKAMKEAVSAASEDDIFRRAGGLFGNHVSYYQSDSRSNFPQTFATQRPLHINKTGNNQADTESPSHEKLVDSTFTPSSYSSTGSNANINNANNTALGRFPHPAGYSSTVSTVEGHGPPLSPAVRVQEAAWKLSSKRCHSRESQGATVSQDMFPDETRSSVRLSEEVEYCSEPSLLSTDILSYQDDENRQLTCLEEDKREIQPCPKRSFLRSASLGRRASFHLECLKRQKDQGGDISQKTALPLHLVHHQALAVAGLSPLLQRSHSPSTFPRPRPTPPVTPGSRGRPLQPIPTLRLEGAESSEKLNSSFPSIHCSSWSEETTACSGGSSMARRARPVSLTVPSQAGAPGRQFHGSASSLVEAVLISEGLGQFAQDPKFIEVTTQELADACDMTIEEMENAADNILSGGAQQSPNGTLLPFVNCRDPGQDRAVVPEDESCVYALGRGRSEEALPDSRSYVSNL
MEASUREMENT_NOTES: CA+/PAASITE Eurofins-Panlabs selectivity data (BI)
PARTICULARS: compound concentration 10 uM, read-out: % Ctrl
REPORTED_PROPERTY: activity at 10 µM

What does the data say about its activity at 10 µM? Entry: CCOCCn1cc(C(=O)Nc2ccc(-n3nc(-c4cccnc4)cc3C(F)(F)F)cn2)ccc1=O
88.5% (not active)

* * *

TESTED_TARGET: Voltage-dependent L-type calcium channel subunit alpha-1C (Rattus norvegicus)
Sequence (P22002 whole entry): as above
MEASUREMENT_NOTES: CA+/TLATATG Eurofins-Panlabs selectivity data (BI)
Design: species or system Cavia porcellus; mode of action antagonist
PARTICULARS: guinea pig, atrial tissue; compound concentration 3 uM; read-out: % Ctrl
REPORTED_PROPERTY: activity at 3 µM

What does the data say about its activity at 3 µM? Entry: CCOCCn1cc(C(=O)Nc2ccc(-n3nc(-c4cccnc4)cc3C(F)(F)F)cn2)ccc1=O
68% (not active)
